// reported IC50 per item
measurement_target: Aminopeptidase N (Plasmodium falciparum FcB1/Columbia, UniProt O96935)
Sequence (O96935 whole entry): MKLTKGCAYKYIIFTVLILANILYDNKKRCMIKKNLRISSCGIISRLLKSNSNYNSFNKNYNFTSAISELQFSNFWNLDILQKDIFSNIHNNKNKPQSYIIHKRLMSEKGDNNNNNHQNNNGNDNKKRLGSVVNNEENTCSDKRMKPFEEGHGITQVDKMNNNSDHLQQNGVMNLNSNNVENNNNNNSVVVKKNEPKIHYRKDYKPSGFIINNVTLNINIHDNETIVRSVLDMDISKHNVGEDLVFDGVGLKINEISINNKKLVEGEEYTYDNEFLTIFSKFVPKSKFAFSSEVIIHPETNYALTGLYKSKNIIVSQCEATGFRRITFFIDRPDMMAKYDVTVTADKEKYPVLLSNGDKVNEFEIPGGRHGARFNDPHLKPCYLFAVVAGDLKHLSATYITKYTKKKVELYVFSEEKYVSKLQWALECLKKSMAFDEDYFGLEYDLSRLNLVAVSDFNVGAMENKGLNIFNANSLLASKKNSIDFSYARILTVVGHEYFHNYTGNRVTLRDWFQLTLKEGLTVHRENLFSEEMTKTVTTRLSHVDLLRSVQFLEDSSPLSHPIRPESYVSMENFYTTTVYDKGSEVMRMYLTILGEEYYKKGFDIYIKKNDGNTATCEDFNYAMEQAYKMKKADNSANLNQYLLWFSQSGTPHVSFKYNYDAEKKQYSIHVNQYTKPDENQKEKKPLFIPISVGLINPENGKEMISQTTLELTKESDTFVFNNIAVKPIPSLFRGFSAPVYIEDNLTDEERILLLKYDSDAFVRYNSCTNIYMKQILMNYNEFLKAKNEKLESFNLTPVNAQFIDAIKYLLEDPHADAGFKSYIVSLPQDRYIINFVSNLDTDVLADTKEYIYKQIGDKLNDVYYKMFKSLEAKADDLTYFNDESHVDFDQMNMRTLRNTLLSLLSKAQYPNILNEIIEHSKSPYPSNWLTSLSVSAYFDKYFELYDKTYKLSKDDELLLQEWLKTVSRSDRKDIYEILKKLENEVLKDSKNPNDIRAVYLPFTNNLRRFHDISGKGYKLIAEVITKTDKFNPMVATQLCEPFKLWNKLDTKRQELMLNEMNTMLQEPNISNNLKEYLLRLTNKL
protocol_summary: malaria alanyl aminopeptidase activity blockers – biochemical, fluorogenic H-Leu-NHMec substrate, 1536-well (AID 1445)
Parameters: species or system Plasmodium falciparum 3D7, 3D7
Active and inactive are the calls of the source. The rule behind the calls is not given here.

| molecule | IC50 |
| --- | --- |
| CC(=O)N1NC(=C2C(=O)N(C)C(=O)N(C)C2=O)CC1c1ccccc1 (configuration not stated) | 16 µM (active) |
| O=C(N/N=C\c1cccc([N+](=O)[O-])c1O)C1COc2ccccc2O1 (configuration not stated) | 31.4 µM (active) |
| O=C1CCC(=O)N1c1nc2n(n1)C(c1ccccc1)C=C(c1ccc(Br)cc1)N2 (configuration not stated) | 69.7 µM (active) |
| Cc1nc(NS(=O)(=O)c2ccccc2)sc1C(=O)N/N=C/c1ccccc1 | 50.1 µM (active) |
| O=C1OC(/C(=C\Nc2cc(Cl)ccc2O)[N+](=O)[O-])c2ccccc21 (configuration not stated) | 48.8 µM (active) |
| COc1ccccc1C1C=C(c2ccc(Cl)cc2)Nc2nc(N3C(=O)CCC3=O)nn21 (configuration not stated) | 31.3 µM (active) |
| CCOC(=O)N1CCN(c2c(NCc3ccccc3Cl)c(=O)c2=O)CC1 | 69.3 µM (active) |
